// data source = ChEMBL document CHEMBL2176965

assay: Induction of NO release in PBS buffer at pH 7.4 incubated for 6 hrs; type: physicochemical; design: concentration or dose not given beside the values; settings: pH 7.4, 6 h
measuredProperty: Activity (%)

# annotated cases, reported Activity shown
# givenSmiles, unitsSymbol, dataValue
data = [
    ("CC(C)[C@H]1CC[C@H](C(=O)N[C@H](Cc2ccccc2)C(=O)OCO/N=[N+](/[O-])N2CCCC2)CC1", "%", 52.7),
    ("CC(C)[C@H]1CC[C@H](C(=O)N[C@H](Cc2ccccc2)C(=O)OCCO[N+](=O)[O-])CC1", "%", 7.7),
]

[1] COc1ccc(Cl)cc1C(=O)NCCc1ccc(C(=O)OCO/N=[N+](\[O-])N2CCCC2)cc1
[2] CCN(CC)/[N+]([O-])=N\OCOC(=O)[C@@H](Cc1ccccc1)NC(=O)[C@H]1CC[C@H](C(C)C)CC1
# min-compare on Activity between 1 and 2 Lab note: record the label of whichever item you select. 1

---

assay: Induction of NO release in PBS buffer in presence of rat serum at pH 7.4 incubated for 24 hrs; set-up: concentration or dose not given beside the values; conditions: pH 7.4, 24 h
measuredProperty: Activity (%)

# annotated cases, reported Activity shown
# givenSmiles, measuredProperty, dataValue
measured = [
    ("COc1ccc(Cl)cc1C(=O)NCCc1ccc(C(=O)OCO/N=[N+](\\[O-])N2CCCC2)cc1", "Activity", 60.5),
    ("CCN(CC)/[N+]([O-])=N/OCOC(=O)c1ccc(CCNC(=O)c2cc(Cl)ccc2OC)cc1", "Activity", 63.6),
    ("CCN(CC)/[N+]([O-])=N\\OCOC(=O)[C@@H](Cc1ccccc1)NC(=O)[C@H]1CC[C@H](C(C)C)CC1", "Activity", 72.2),
]

[I] CC(C)[C@H]1CC[C@H](C(=O)N[C@H](Cc2ccccc2)C(=O)OCO/N=[N+](/[O-])N2CCCC2)CC1
[II] COc1ccc(Cl)cc1C(=O)NCCc1ccc(C(=O)OCCO[N+](=O)[O-])cc1
[III] CC(C)[C@H]1CC[C@H](C(=O)N[C@H](Cc2ccccc2)C(=O)OCCO[N+](=O)[O-])CC1
Please list these compounds in decreasing order of Activity. Rank the items, then write their labels in that order. I, III, II

---

The following compounds are listed with their measured Activity values.
tested on: Rattus norvegicus; experiment: Antihyperglycemic activity in streptozotocin-induced diabetic Sprague-Dawley rat assessed as reduction in blood glucose level at 63.01 umol/kg, po after 1 hr relative to control; type: functional; parameters: scale not given: the % may be the effect or the level left
Field format: number, assumed %, no unit text.

# annotated cases, reported Activity shown
# compound, Activity [%]
rows = [
    ("COc1ccc(Cl)cc1C(=O)NCCc1ccc(C(=O)OCCO[N+](=O)[O-])cc1", 20),
    ("CCN(CC)/[N+]([O-])=N\\OCOC(=O)[C@@H](Cc1ccccc1)NC(=O)[C@H]1CC[C@H](C(C)C)CC1", 21.1),
    ("CC(C)[C@H]1CC[C@H](C(=O)N[C@H](Cc2ccccc2)C(=O)OCCO[N+](=O)[O-])CC1", 8.2),
]

Result for COc1ccc(Cl)cc1C(=O)NCCc1ccc(C(=O)O)cc1 [MEGLITINIDE] , tested on Rattus norvegicus, Activity: 30.5

Result for CC(C)[C@H]1CC[C@H](C(=O)N[C@H](Cc2ccccc2)C(=O)O)CC1 [NATEGLINIDE] , tested on Rattus norvegicus, Activity: 13.8

Result for CCN(CC)/[N+]([O-])=N/OCOC(=O)c1ccc(CCNC(=O)c2cc(Cl)ccc2OC)cc1 , tested on Rattus norvegicus, Activity: 20

Result for CC(C)[C@H]1CC[C@H](C(=O)N[C@H](Cc2ccccc2)C(=O)OCO/N=[N+](/[O-])N2CCCC2)CC1 , tested on Rattus norvegicus, Activity: 8.1

Result for COc1ccc(Cl)cc1C(=O)NCCc1ccc(C(=O)OCO/N=[N+](\[O-])N2CCCC2)cc1 , tested on Rattus norvegicus, Activity: 20
